Hey, just so you know, these numbers are from patent US9249087B2.

Target: HDAC2 (Homo sapiens (Human), UniProt Q92769)
Sequence (Q92769 whole entry): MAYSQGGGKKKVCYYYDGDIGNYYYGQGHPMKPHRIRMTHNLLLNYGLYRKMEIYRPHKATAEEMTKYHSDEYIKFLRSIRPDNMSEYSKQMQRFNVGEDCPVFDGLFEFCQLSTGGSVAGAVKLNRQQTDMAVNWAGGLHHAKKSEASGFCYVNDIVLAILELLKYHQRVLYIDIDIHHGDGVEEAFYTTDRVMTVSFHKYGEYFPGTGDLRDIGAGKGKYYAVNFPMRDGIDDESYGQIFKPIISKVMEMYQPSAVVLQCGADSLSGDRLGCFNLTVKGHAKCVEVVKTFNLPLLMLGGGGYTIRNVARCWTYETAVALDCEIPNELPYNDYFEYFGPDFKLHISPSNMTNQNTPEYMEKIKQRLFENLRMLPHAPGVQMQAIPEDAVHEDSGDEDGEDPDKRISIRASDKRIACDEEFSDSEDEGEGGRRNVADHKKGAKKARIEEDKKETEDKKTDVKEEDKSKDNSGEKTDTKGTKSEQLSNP
Assay: HDAC2 fluorogenic peptide deacetylation inhibition assay
Format: biochemical
Details: average of two experiments; read-out: HDAC Isoform IC50 (μM) 2
measurement-type: IC50 (µM)
The reply should contain only the number, in µM.

Prompt line: Respond only with IC50 recorded for Cc1cn(Cc2ccc(C(=O)NO)cc2)c2ccccc12 [drawing 138]
Response line: 11.9

Prompt line: Respond only with IC50 recorded for Cc1cn(Cc2ccc(C(=O)NO)cc2)c2ccccc12 [Compound 6]
Response line: 11.9

Prompt line: Respond only with IC50 recorded for O=C(NO)c1ccc(Cn2ccc3ccccc32)cc1 [Compound 2]
Response line: 9.19

Prompt line: Respond only with IC50 recorded for Cc1cc2ccccc2n1Cc1ccc(C(=O)NO)cc1 [drawing 137]
Response line: 8.14

Prompt line: Respond only with IC50 recorded for Cc1cc2ccccc2n1Cc1ccc(C(=O)NO)cc1 [Compound 4]
Response line: 8.14

Prompt line: Respond only with IC50 recorded for O=C(CCCCCCC(=O)Nc1ccc([C@H]2O[C@@H](CSc3nc(-c4ccccc4)c(-c4ccccc4)o3)C[C@@H](c3ccc(CO)cc3)O2)cc1)NO
Response line: 6.27

Prompt line: Respond only with IC50 recorded for O=C(NO)c1ccc(Cn2ccc3ccccc32)cc1 [drawing 136]
Response line: 9.19
